Parameter IC50: see the listing below.
target: IRAK4 (Homo sapiens (Human), UniProt Q9NWZ3); assay: IRAK-4 biochemical kinase assay, AlphaScreen format; details: 1 nM IRAK4, 1.6 μM peptide, 10 μM ATP, 3.5 h at RT; class symbols
Sequence (Q9NWZ3 whole entry, species assumed): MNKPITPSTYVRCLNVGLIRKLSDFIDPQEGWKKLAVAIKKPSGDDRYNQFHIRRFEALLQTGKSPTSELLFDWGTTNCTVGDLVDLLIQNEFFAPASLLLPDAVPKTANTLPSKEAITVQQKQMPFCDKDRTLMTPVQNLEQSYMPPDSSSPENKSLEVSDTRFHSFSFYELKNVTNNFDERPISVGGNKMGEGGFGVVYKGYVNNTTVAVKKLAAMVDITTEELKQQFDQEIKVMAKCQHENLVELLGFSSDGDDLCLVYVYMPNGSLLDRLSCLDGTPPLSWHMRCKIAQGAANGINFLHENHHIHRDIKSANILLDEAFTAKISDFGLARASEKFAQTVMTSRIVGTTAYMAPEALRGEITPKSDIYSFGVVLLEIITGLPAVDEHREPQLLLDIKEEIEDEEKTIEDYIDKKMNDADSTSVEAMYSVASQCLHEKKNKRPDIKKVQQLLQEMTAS

• O=C1Nc2cn(C3CCOCC3)nc2C(=O)NCCOCCc2cc(ccn2)-c2nc1cs2 = < 100 nM

Hi! What's the reported IC50 for `O=C1Nc2ccccc2OCCCCCNc2cc(ccn2)-c2nc1cs2` on IRAK4 (Homo sapiens (Human), UniProt Q9NWZ3)?
< 100 nM

Lab request: please report IC50 under test system IRAK4 (Homo sapiens (Human), UniProt Q9NWZ3) for `O=C(NCCN1CCOCC1)c1ccc2c(c1)NC(=O)c1csc(n1)-c1ccnc(c1)NCCCCCO2`
< 100 nM

Query for IRAK4 (Homo sapiens (Human), UniProt Q9NWZ3): what IC50 does the record show for `O=C1Nc2cn(CC3CCNCC3)nc2C(=O)NCCOCCOc2cc(ccn2)-c2nc1cs2` ?
< 1000 nM

Identify the measured IC50 of O=C1Nc2cn(C3CCOCC3)nc2C(=O)NC(CCO)C(=O)NCCCc2cc(ccn2)-c2nc1cs2 (stereo not shown) for IRAK4 (Homo sapiens (Human), UniProt Q9NWZ3).
< 10000 nM

Hi! What's the reported IC50 for `O=C1NC[C@H]2CC[C@@H](C2)OCCCNc2cc(ccn2)-c2nc1cs2` on IRAK4 (Homo sapiens (Human), UniProt Q9NWZ3)?
< 1000 nM

Form field: IC50 recorded for `CC(C)(C)OC(=O)N1CCC(Cn2cc3c(n2)C(=O)NCCOCCOc2cc(ccn2)-c2nc(cs2)C(=O)N3)CC1` with IRAK4 (Homo sapiens (Human), UniProt Q9NWZ3) (enter value)
< 100 nM

Recall the recorded IC50 for `CNC(=O)Cn1cc2c(n1)C(=O)NCCOCCOc1cc(ccn1)-c1nc(cs1)C(=O)N2` with IRAK4 (Homo sapiens (Human), UniProt Q9NWZ3) and state it.
< 100 nM

Each recorded value in this set is attributed to patent US9617282B2.
